The reported numbers originate from patent US4103011A.

Listing of entries alongside the reported LD50 at 168 h.
test: in vivo; conditions: mouse, sc
Structures can show the parent of a compound that is named as a salt.

1. CCN1CCN(C(=O)N[C@@H](C(=O)N[C@@H]2C(=O)N3[C@@H]2SC(C)(C)[C@@H]3C(=O)O)c2ccccc2)C(=O)C1=O [Compound H, sodium salt] ... > 6000 mg/kg
2. CC1(C)S[C@@H]2[C@H](NC(=O)[C@H](NC(=O)c3c[nH]c4nc(N)ncc4c3=O)c3ccc(O)cc3)C(=O)N2[C@H]1C(=O)O [Compound G, sodium salt] ... 1000 mg/kg
3. CC1(C)S[C@@H]2[C@H](NC(=O)[C@H](NC(=O)c3c[nH]c4nc(N5CCN(C=O)CC5)ncc4c3=O)c3ccccc3)C(=O)N2[C@H]1C(=O)O [Compound B, sodium salt] ... < 4000 mg/kg

Please fill in: LD50 at 168 h reported for CC(=O)N1CCN(c2ncc3c(=O)c(C(=O)N[C@@H](C(=O)N[C@@H]4C(=O)N5[C@@H]4SC(C)(C)[C@@H]5C(=O)O)c4ccc(O)cc4)c[nH]c3n2)CC1 [Compound 2, sodium salt] = > 6000 mg/kg

Please fill in: LD50 at 168 h reported for CN(C)c1ncc2c(=O)c(C(=O)N[C@@H](C(=O)N[C@@H]3C(=O)N4[C@@H]3SC(C)(C)[C@@H]4C(=O)O)c3ccc(O)cc3)c[nH]c2n1 = 1070 mg/kg

* * *

assay: Urinary excretion in mice; format: in vivo, male mice (ddY); details: mouse, urine, im, 25 mg/kg, im, single dose; 3-6 hour; read-out: r: urinary recovery
Structures can show the parent of a compound that is named as a salt.
parameter: dose excreted at 6 h
Please make sure the unit comes right after the number.

Please fill in: dose excreted at 6 h reported for CC1(C)S[C@@H]2[C@H](NC(=O)[C@H](NC(=O)c3c[nH]c4nc(N5CCN(C=O)CC5)ncc4c3=O)c3ccc(O)cc3)C(=O)N2[C@H]1C(=O)O [Compound 1, sodium salt] = 1.89%

* * *

tested on: Staphylococcus aureus No. 50774; assay: In vivo efficacy against systemic infection; design: species or system male mice (ddY); details: NO.50774, in Mus musculus, 336 h, sc, twice, about 5 minutes and 6 hours after infection, read-out: ED50 (median effective dose)
Counter-ions that a name gives are not always drawn.
Please respond with true when measured ED50 is strictly beneath 3 mg/kg, and with false in all other cases.

Here's what some known entries look like.
1) CCN1CCN(C(=O)N[C@@H](C(=O)N[C@@H]2C(=O)N3[C@@H]2SC(C)(C)[C@@H]3C(=O)O)c2ccccc2)C(=O)C1=O [Compound H, sodium salt] ... false
2) CC1(C)S[C@@H]2[C@H](NC(=O)[C@H](NC(=O)c3c[nH]c4nc(N5CCN(C=O)CC5)ncc4c3=O)c3ccccc3)C(=O)N2[C@H]1C(=O)O [Compound B, sodium salt] ... false
3) CC(=O)N1CCN(c2ncc3c(=O)c(C(=O)N[C@@H](C(=O)N[C@@H]4C(=O)N5[C@@H]4SC(C)(C)[C@@H]5C(=O)O)c4ccc(O)cc4)c[nH]c3n2)CC1 [Compound 2, sodium salt] ... false
4) CC1(C)S[C@@H]2[C@H](NC(=O)[C@H](NC(=O)c3c[nH]c4nc(N5CCN(C=O)CC5)ncc4c3=O)c3ccc(O)cc3)C(=O)N2[C@H]1C(=O)O [Compound 1, sodium salt] ... true
5) CC1(C)S[C@@H]2[C@H](NC(=O)[C@H](N)c3ccc(O)cc3)C(=O)N2[C@H]1C(=O)O [Compound M, sodium salt] ... true

Lookup: # strict comparison: is reported ED50 < 3 mg/kg? input = CN1CCN(c2ncc3c(=O)c(C(=O)N[C@@H](C(=O)N[C@@H]4C(=O)N5[C@@H]4SC(C)(C)[C@@H]5C(=O)O)c4ccc(O)cc4)c[nH]c3n2)CC1 [Compound A, sodium salt]
Found: false

Lookup: # strict comparison: is reported ED50 < 3 mg/kg? input = CCn1cc(C(=O)O)c(=O)c2cnc(N3CCNCC3)nc21
Found: false
